All figures here come from PubChem BioAssay AID2060892.

# Tested on: HOP-62 complex spheroids with HUVEC/MSC, viability
# testProtocol: Anticancer human tumor HOP-62 cell line growth inhibition [RAS];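 also: spheroids exposed to agents for seven days before readout; 100% = DMSO vehicle control viability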
# protocolConditions: second compound 0.3 µM; first compound 0.316 µM; stronger effect = lower value
measuredParameter: viability, T/C (%)
Numeric only. Scale: %

Request: Recorded viability, T/C for CC1(O)CCCC1n1c(=O)c(C(F)F)cc2cnc(NC3CCN(S(C)(=O)=O)CC3)nc21 (stereo not given) + CCn1c(-c2cc(N3CCN(C)CC3)cnc2C(C)OC)c2c3cc(ccc31)-c1csc(n1)CC(NC(=O)C1CC1C)C(=O)N1CCCC(N1)C(=O)OCC(C)(C)C2 , please?
Response: 34.3

Request: Moving on to the next compound: CC1(O)CCCC1n1c(=O)c(C(F)F)cc2cnc(NC3CCN(S(C)(=O)=O)CC3)nc21 (stereo not given) + CCn1c(-c2cccnc2C(C)OC)c2c3cc(ccc31)N1CCOC(CC(NC(=O)C(C(C)C)N(C)C(=O)C3(F)CCN(C(=O)C#CC(C)(C)N(C)C)CC3)C(=O)N3CCCC(N3)C(=O)OCC(C)(C)C2)C1
Response: 56.5

Request: Same for C=CC(=O)Nc1cc(Nc2nccc(-c3cn(C)c4ccccc34)n2)c(OC)cc1N(C)CCN(C)C + CCn1c(-c2cccnc2C(C)OC)c2c3cc(ccc31)N1CCOC(CC(NC(=O)C(C(C)C)N(C)C(=O)C3(F)CCN(C(=O)C#CC(C)(C)N(C)C)CC3)C(=O)N3CCCC(N3)C(=O)OCC(C)(C)C2)C1
Response: 60.2

Request: Do the same for O=C(c1ccc(F)c(F)c1Nc1ccc(I)cc1F)N1CC(O)([C@@H]2CCCCN2)C1 + CCn1c(-c2cc(N3CCN(C)CC3)cnc2C(C)OC)c2c3cc(ccc31)-c1csc(n1)CC(NC(=O)C1CC1C)C(=O)N1CCCC(N1)C(=O)OCC(C)(C)C2 please
Response: 32.9

Request: Now try C[C@@H](NC(=O)c1ncnc(N)c1Cl)c1ncc(C(=O)Nc2cc(C(F)(F)F)c(Cl)cn2)s1 + CCn1c(-c2cccnc2C(C)OC)c2c3cc(ccc31)N1CCOC(CC(NC(=O)C(C(C)C)N(C)C(=O)C3(F)CCN(C(=O)C#CC(C)(C)N(C)C)CC3)C(=O)N3CCCC(N3)C(=O)OCC(C)(C)C2)C1 .
Response: 77.5

Request: Then NC1c2ccccc2OC12CCN(c1cnc3c(N4CCCc5ncccc54)n[nH]c3n1)CC2 (stereo not given) + CCn1c(-c2cc(N3CCN(C)CC3)cnc2C(C)OC)c2c3cc(ccc31)-c1csc(n1)CC(NC(=O)C1CC1C)C(=O)N1CCCC(N1)C(=O)OCC(C)(C)C2 ?
Response: 18.4

// next entry
Request: Given the entry C=CC(=O)N1CCN(c2nc(OCC3CCCN3C)nc3c(F)c(-c4nc(N)cc(C)c4C(F)(F)F)c(Cl)cc23)C(C)C1 (stereo not given) + CCn1c(-c2cccnc2C(C)OC)c2c3cc(ccc31)N1CCOC(CC(NC(=O)C(C(C)C)N(C)C(=O)C3(F)CCN(C(=O)C#CC(C)(C)N(C)C)CC3)C(=O)N3CCCC(N3)C(=O)OCC(C)(C)C2)C1 , report its measured viability, T/C.
Response: 74.6

----------
# Test system: HOP-62 complex spheroids with HUVEC/MSC, viability
# testProtocol: Anticancer human tumor HOP-62 cell line growth inhibition [RAS];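 also: spheroids exposed to agents for seven days before readout; 100% = DMSO vehicle control viability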
# protocolConditions: second compound 1 µM; first compound 0.316 µM; stronger effect = lower value
viability, T/C strictly less than 70% = y. Otherwise n.

// known answers, use as guide
Request: Would you kindly verify if viability, T/C of Nc1ccn(C2OC(CO)C(O)C2(F)F)c(=O)n1 (stereo not given) + C=CC(=O)N1CCN(c2nc(OCC3CCCN3C)nc3c(F)c(-c4nc(N)cc(C)c4C(F)(F)F)c(Cl)cc23)C(C)C1 is strictly less than 70%?
Response: y

Request: Would you mind doing CC(Nc1ccc2c(c1)OCCn1cc(N3C(=O)OCC3C(F)F)nc1-2)C(N)=O (stereo not given) + C#Cc1c(F)ccc2cc(O)cc(-c3ncc4c(N5CC6CCC(C5)N6)nc(OCC56CCCN5CC(F)C6)nc4c3F)c12 as well?
Response: y

Further cases:
Request: Does the reported viability, T/C of the following compound sit strictly below 70%? CCN1CCN(Cc2ccc(Nc3ncc(F)c(-c4cc(F)c5nc(C)n(C(C)C)c5c4)n3)nc2)CC1 + C#Cc1c(F)ccc2cc(O)cc(-c3ncc4c(N5CC6CCC(C5)N6)nc(OCC56CCCN5CC(F)C6)nc4c3F)c12
Response: n

Request: Same read-out for C[C@@H](NC(=O)c1ncnc(N)c1Cl)c1ncc(C(=O)Nc2cc(C(F)(F)F)c(Cl)cn2)s1 + C#Cc1c(F)ccc2cc(O)cc(-c3ncc4c(N5CC6CCC(C5)N6)nc(OCC56CCCN5CC(F)C6)nc4c3F)c12 ?
Response: n

----------
# Tested on: HOP-62 complex spheroids with HUVEC/MSC, viability
# testProtocol: Anticancer human tumor HOP-62 cell line growth inhibition [RAS];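 also: spheroids exposed to agents for seven days before readout; 100% = DMSO vehicle control viability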
# protocolConditions: second compound 0.0949 µM; first compound 0.1 µM; stronger effect = lower value
measuredParameter: viability, T/C (%)
Kindly answer with a numeric value in %, unit omitted.

Request: Reported viability, T/C, molecule CCN1CCN(Cc2ccc(Nc3ncc(F)c(-c4cc(F)c5nc(C)n(C(C)C)c5c4)n3)nc2)CC1 + CCn1c(-c2cc(N3CCN(C)CC3)cnc2C(C)OC)c2c3cc(ccc31)-c1csc(n1)CC(NC(=O)C1CC1C)C(=O)N1CCCC(N1)C(=O)OCC(C)(C)C2 : ____
Response: 32.4

Next up:
Request: # lookup: viability, T/C of C=CC(=O)Nc1cc(Nc2nccc(-c3cn(C)c4ccccc34)n2)c(OC)cc1N(C)CCN(C)C + CCn1c(-c2cccnc2C(C)OC)c2c3cc(ccc31)N1CCOC(CC(NC(=O)C(C(C)C)N(C)C(=O)C3(F)CCN(C(=O)C#CC(C)(C)N(C)C)CC3)C(=O)N3CCCC(N3)C(=O)OCC(C)(C)C2)C1
Response: 67.3

----------
In this section we review reported viability, T/C values for a set of molecules.
# System: HOP-62 complex spheroids with HUVEC/MSC, viability
# testProtocol: Anticancer human tumor HOP-62 cell line growth inhibition [RAS];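 also: spheroids exposed to agents for seven days before readout; 100% = DMSO vehicle control viability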
# protocolConditions: second compound 0.00949 µM; first compound 1 µM; stronger effect = lower value
Form entry: value (%) — number only.

Completed entries (count: 5):
Request: Requested field: viability, T/C. Item: O=C(c1ccc(F)c(F)c1Nc1ccc(I)cc1F)N1CC(O)([C@@H]2CCCCN2)C1 + CCn1c(-c2cccnc2C(C)OC)c2c3cc(ccc31)N1CCOC(CC(NC(=O)C(C(C)C)N(C)C(=O)C3(F)CCN(C(=O)C#CC(C)(C)N(C)C)CC3)C(=O)N3CCCC(N3)C(=O)OCC(C)(C)C2)C1
Response: 30.9

Request: // same read-out, input: C=CC(=O)Nc1cc(Nc2nccc(-c3cn(C)c4ccccc34)n2)c(OC)cc1N(C)CCN(C)C + CCn1c(-c2cc(N3CCN(C)CC3)cnc2C(C)OC)c2c3cc(ccc31)-c1csc(n1)CC(NC(=O)C1CC1C)C(=O)N1CCCC(N1)C(=O)OCC(C)(C)C2
Response: 33.2

Request: Can you check CCC(CC)c1cc(NC2CCC(N)C2)n2nccc2n1 (stereo not drawn) + CCn1c(-c2cc(N3CCN(C)CC3)cnc2C(C)OC)c2c3cc(ccc31)-c1csc(n1)CC(NC(=O)C1CC1C)C(=O)N1CCCC(N1)C(=O)OCC(C)(C)C2 next?
Response: 93.5

Request: CC(=O)OC12COC1CC(O)C1(C)C(=O)C(O)C3=C(C)C(OC(=O)C(O)C(NC(=O)OC(C)(C)C)c4ccccc4)CC(O)(C(OC(=O)c4ccccc4)C21)C3(C)C (stereo not drawn) + CCn1c(-c2cc(N3CCN(C)CC3)cnc2C(C)OC)c2c3cc(ccc31)-c1csc(n1)CC(NC(=O)C1CC1C)C(=O)N1CCCC(N1)C(=O)OCC(C)(C)C2 ?
Response: 37

Request: C[C@@H](NC(=O)c1ncnc(N)c1Cl)c1ncc(C(=O)Nc2cc(C(F)(F)F)c(Cl)cn2)s1 + CCn1c(-c2cc(N3CCN(C)CC3)cnc2C(C)OC)c2c3cc(ccc31)-c1csc(n1)CC(NC(=O)C1CC1C)C(=O)N1CCCC(N1)C(=O)OCC(C)(C)C2 ?
Response: 83.7

Continuing:
Request: Which viability, T/C value is on record for CC(Nc1ccc2c(c1)OCCn1cc(N3C(=O)OCC3C(F)F)nc1-2)C(N)=O (stereo not drawn) + CCn1c(-c2cc(N3CCN(C)CC3)cnc2C(C)OC)c2c3cc(ccc31)-c1csc(n1)CC(NC(=O)C1CC1C)C(=O)N1CCCC(N1)C(=O)OCC(C)(C)C2 ?
Response: 27.4

Request: Continue with CCN1CCN(Cc2ccc(Nc3ncc(F)c(-c4cc(F)c5nc(C)n(C(C)C)c5c4)n3)nc2)CC1 + CCn1c(-c2cc(N3CCN(C)CC3)cnc2C(C)OC)c2c3cc(ccc31)-c1csc(n1)CC(NC(=O)C1CC1C)C(=O)N1CCCC(N1)C(=O)OCC(C)(C)C2
Response: 50.8

Request: Another molecule to check: NC1c2ccccc2OC12CCN(c1cnc3c(N4CCCc5ncccc54)n[nH]c3n1)CC2 (stereo not drawn) + CCn1c(-c2cccnc2C(C)OC)c2c3cc(ccc31)N1CCOC(CC(NC(=O)C(C(C)C)N(C)C(=O)C3(F)CCN(C(=O)C#CC(C)(C)N(C)C)CC3)C(=O)N3CCCC(N3)C(=O)OCC(C)(C)C2)C1
Response: 22.7
